MEASURED TARGET: CDK12/CycK (Homo sapiens, UniProt Q9NYV4)
Construct: ICE Bioscience Inc. (assay service)
Sequence (Q9NYV4 whole entry): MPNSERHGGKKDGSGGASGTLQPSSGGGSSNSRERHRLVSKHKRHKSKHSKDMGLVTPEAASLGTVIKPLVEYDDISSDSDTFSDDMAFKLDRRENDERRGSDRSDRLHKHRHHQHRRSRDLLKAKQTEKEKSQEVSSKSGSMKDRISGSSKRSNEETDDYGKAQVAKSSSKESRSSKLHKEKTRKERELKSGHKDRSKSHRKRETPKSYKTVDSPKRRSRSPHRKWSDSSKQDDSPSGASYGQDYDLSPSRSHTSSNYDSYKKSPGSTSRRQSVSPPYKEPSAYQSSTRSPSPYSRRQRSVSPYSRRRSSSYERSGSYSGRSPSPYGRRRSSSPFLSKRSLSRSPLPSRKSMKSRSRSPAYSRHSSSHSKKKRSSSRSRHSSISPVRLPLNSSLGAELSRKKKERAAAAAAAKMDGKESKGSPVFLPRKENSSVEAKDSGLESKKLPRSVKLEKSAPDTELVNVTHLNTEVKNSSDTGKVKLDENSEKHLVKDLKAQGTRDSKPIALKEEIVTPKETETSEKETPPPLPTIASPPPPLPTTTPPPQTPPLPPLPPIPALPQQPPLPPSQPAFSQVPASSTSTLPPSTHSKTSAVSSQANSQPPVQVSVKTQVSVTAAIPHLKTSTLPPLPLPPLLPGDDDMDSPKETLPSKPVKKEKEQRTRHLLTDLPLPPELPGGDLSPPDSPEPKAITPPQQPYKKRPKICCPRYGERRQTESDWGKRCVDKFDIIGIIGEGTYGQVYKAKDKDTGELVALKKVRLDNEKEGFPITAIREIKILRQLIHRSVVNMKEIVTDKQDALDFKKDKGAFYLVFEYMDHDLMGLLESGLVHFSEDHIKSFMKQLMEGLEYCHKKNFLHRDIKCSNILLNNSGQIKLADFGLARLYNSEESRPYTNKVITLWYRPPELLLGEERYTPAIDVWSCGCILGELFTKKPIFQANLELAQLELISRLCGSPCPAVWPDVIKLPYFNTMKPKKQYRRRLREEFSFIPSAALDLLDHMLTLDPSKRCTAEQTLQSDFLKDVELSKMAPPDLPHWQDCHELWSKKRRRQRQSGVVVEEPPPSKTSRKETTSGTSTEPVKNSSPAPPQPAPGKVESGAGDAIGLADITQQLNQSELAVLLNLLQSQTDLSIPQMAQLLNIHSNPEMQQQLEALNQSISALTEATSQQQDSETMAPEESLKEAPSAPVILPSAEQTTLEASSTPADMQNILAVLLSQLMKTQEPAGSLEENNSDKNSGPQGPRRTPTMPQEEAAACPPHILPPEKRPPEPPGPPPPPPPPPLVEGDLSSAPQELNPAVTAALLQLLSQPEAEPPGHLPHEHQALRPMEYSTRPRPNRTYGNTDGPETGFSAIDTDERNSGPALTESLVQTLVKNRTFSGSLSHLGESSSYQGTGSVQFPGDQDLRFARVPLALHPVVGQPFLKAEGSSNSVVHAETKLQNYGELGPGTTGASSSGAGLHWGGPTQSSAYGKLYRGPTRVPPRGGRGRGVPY
Sequence (O75909 whole entry partner): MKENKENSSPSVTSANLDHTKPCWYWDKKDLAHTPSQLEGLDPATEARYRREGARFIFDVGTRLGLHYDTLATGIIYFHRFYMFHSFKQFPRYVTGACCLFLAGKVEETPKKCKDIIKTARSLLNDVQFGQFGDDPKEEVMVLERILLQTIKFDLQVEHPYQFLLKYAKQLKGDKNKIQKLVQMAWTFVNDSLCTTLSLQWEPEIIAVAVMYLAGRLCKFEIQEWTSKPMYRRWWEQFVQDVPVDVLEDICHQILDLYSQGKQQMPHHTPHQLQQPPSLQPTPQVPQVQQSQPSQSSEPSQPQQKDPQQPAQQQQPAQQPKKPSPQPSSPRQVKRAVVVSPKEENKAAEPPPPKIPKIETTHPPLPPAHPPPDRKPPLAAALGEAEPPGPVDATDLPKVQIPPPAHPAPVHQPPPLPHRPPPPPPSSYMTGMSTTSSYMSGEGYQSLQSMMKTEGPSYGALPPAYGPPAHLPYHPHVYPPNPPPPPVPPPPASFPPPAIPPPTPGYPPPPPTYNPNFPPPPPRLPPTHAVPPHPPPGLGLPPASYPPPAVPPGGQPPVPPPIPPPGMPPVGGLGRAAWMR
PROTOCOL DETAILS: ADP-Glo kinase assay, CDK12
Type: biochemical
STATED CONDITIONS: ADP-Glo kinase assay; means from three independent experiments
# IC50 per record follows
Numbers only; they are read as nM.

Give IC50 only, for CN(C)C/C=C/C(=O)Nc1ccc(C(=O)N2CCC[C@@H](Nc3ncc(Cl)c(-c4c[nH]c5ccccc45)n3)C2)cc1 [Compound 3, THZ531, reference compound] , using CDK12/CycK (Homo sapiens, UniProt Q9NYV4) data.
77.4

Give IC50 only, for C=CC(=O)Nc1cc(N(C(=O)NCc2ccccc2)[C@H]2CC[C@H](Nc3ccc(C#N)cn3)CC2)ccc1N(C)CCN(C)C [Compound 14c] , using CDK12/CycK (Homo sapiens, UniProt Q9NYV4) data.
191

Give IC50 only, for C=CC(=O)Nc1cc(N(C(=O)NCc2ccccc2)[C@H]2CC[C@H](Nc3ccc(C#N)cn3)CC2)ccc1N1CC(N(C)C)C1 [Compound 14d] , using CDK12/CycK (Homo sapiens, UniProt Q9NYV4) data.
151
